Source listed as patent US7186831B2.

# test.protocol: log P by HPLC
# Format: physicochemical
# experimental.setup: HPLC, gradient method, acetonitrile/0.1% aqueous phosphoric acid; EEC directive 79/831 Annex V. A8
measured.attribute: logP

>>> numeric_result("CC(C)CC(C)Nc1c(-c2ccc(F)cc2Cl)c(Cl)nc2nc(C3CC3)nn12 (stereo not drawn) [compound 637]")
4.61
>>> numeric_result("CCc1nc2nc(Cl)c(-c3c(F)cc(F)cc3F)c(NC3CCCC3)n2n1 [compound 75]")
3.66
>>> numeric_result("Cc1nc2nc(Cl)c(-c3ccccc3Cl)c(N3CCC(C)CC3)n2n1 [compound 230]")
3.94
>>> numeric_result("Cc1nc2nc(Cl)c(-c3c(F)cc(F)cc3F)c(N(C)Cc3ccco3)n2n1 [compound 153]")
3.22
>>> numeric_result("C=C(C)CN(CC)c1c(-c2c(F)cccc2F)c(Cl)nc2nc(C3CC3)nn12 [compound 752]")
4.31
>>> numeric_result("Cc1nc2nc(Cl)c(-c3c(F)cccc3F)c(N3CCSCC3)n2n1 [compound 179]")
2.84

A = Cc1nc2nc(Cl)c(-c3c(F)cc(F)cc3F)c(N(C)CC3OCCO3)n2n1 [compound 151]
B = CCCNc1c(-c2c(F)cc(F)cc2F)c(Cl)nc2nc(C(F)(F)F)nn12 [compound 106]
Problem: Given the entries A and B , determine which has the lower reported logP. Mark your selection by writing its label. A

====

# test.protocol: log P by HPLC
# Type: physicochemical
# experimental.setup: EEC directive 79/831 Annex V. A8 by HPLC (gradient method, acetonitrile/0.1% aqueous phosphoric acid)
measured.attribute: logP

>>> numeric_result("CC(C)(C)CNc1c(-c2c(F)cc(F)cc2F)c(Cl)nc2nc(C3CC3)nn12")
4.19
>>> numeric_result("Cc1nc2nc(Cl)c(-c3ccc(F)cc3F)c(N3CCC(F)CC3)n2n1")
2.96
>>> numeric_result("CCN(CC(F)(F)F)c1c(-c2c(F)cc(F)cc2F)c(Cl)nc2nc(C)nn12")
3.42
>>> numeric_result("Cc1nc2nc(Cl)c(-c3ccccc3F)c(NOCc3ccccc3)n2n1")
2.93
>>> numeric_result("C=C(C)CN(C)c1c(-c2c(F)cccc2F)c(Cl)nc2nc(C)nn12")
3.3
>>> numeric_result("Cc1nc2nc(Cl)c(-c3c(F)cccc3F)c(N3CCCCC3C)n2n1 (stereo not drawn)")
3.57
>>> numeric_result("CC(Nc1c(-c2c(F)cc(F)cc2F)c(Cl)nc2nc(C3CC3)nn12)C(F)(F)F (stereo not drawn)")
3.58
>>> numeric_result("Cc1nc2nc(Cl)c(-c3c(F)cccc3F)c(N3CC(C)CC(C)C3)n2n1 (stereo not drawn)")
4.08
>>> numeric_result("Cc1nc2nc(Cl)c(-c3ccccc3Cl)c(NC(C)C(F)(F)F)n2n1 (stereo not drawn)")
3.1
>>> numeric_result("Cc1nc2nc(Cl)c(-c3c(F)cccc3F)c(N3CCCc4ccccc43)n2n1")
3.34
>>> numeric_result("CC1CCCN1c1c(-c2c(F)cc(F)cc2F)c(Cl)nc2nc(C3CC3)nn12 (stereo not drawn)")
3.9
>>> numeric_result("CCCN(CC1CCCO1)c1c(-c2c(F)cccc2Cl)c(Cl)nc2nc(C)nn12 (stereo not drawn)")
3.72
